These measurements were taken from ChEMBL document CHEMBL1124261.

Tested on: L1210
Test: Mean change in weight of mice infected with L1210 leukemia after 7 days after an intraperitoneal dose of 20 mg/kg
Assay type: functional, Mus musculus
As shown below, each of these molecules has a reported Weight change value.

- molecule: "CN(Cc1cnc2nc(N)nc(N)c2n1)c1ccc(C(=O)NC(CCCCCCCCCC(=O)O)C(=O)O)cc1 (stereo not given)"
  unitSymbol: "%"
  Weight change: 6
- molecule: "CN(Cc1cnc2nc(N)nc(N)c2n1)c1ccc(C(=O)NC(CCCCCCC(=O)O)C(=O)O)cc1 (stereo not given)"
  unitSymbol: "%"
  Weight change: 4
- molecule: "CN(Cc1cnc2nc(N)nc(N)c2n1)c1ccc(C(=O)NC(CCCCCCCC(=O)O)C(=O)O)cc1 (stereo not given)"
  unitSymbol: "%"
  Weight change: 7
- molecule: "CN(Cc1cnc2nc(N)nc(N)c2n1)c1ccc(C(=O)NC(CCCCCCCCCCC(=O)O)C(=O)O)cc1 (stereo not given)"
  unitSymbol: "%"
  Weight change: 3
- molecule: "CN(Cc1cnc2nc(N)nc(N)c2n1)c1ccc(C(=O)NC(CCCCCCCCC(=O)O)C(=O)O)cc1 (stereo not given)"
  unitSymbol: "%"
  Weight change: 5

###

Target chain: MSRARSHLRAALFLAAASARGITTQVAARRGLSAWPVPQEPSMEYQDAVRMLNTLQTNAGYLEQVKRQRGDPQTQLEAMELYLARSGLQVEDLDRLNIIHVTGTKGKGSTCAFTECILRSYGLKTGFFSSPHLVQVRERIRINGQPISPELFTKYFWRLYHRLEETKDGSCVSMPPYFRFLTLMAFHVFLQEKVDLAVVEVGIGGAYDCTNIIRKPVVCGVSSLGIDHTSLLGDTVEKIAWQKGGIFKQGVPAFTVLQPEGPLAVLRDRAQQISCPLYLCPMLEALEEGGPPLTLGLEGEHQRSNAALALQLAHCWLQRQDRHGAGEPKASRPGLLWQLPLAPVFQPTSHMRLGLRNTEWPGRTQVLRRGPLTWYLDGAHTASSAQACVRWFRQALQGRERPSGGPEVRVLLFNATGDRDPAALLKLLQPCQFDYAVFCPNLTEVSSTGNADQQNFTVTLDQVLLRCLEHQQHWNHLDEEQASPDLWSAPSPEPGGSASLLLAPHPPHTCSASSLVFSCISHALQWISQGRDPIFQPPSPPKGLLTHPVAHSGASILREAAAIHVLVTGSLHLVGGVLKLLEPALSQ
parameter: Ki (µM)

- smi: "CN(Cc1cnc2nc(N)nc(N)c2n1)c1ccc(C(=O)N[C@@H](CCCN)C(=O)O)cc1"
  unitSymbol: "µM"
  recordedMeasurement: 4

###

Molecular target: Folylpolyglutamate synthase, mitochondrial (Mus musculus)
Sequence (P48760 whole entry): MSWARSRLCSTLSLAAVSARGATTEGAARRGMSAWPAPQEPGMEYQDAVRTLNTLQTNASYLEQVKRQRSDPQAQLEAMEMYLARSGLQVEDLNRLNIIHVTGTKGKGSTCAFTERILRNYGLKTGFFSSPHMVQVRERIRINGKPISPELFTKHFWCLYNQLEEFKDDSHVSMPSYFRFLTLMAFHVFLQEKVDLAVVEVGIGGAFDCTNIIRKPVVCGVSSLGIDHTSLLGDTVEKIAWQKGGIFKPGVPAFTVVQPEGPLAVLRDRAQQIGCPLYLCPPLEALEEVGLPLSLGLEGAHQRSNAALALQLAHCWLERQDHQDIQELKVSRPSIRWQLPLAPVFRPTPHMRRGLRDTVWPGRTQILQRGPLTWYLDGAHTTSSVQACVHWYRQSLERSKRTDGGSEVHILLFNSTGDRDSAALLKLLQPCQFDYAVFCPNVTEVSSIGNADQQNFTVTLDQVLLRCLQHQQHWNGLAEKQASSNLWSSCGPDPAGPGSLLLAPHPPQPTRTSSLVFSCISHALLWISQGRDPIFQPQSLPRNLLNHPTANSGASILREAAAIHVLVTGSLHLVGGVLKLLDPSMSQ
Test: Inhibitory constant against purified Folyl-polyglutamate synthase from mouse liver
pKi: −log10 of the molar value.

- compound: "CN(Cc1cnc2nc(N)nc(N)c2n1)c1ccc(C(=O)NC(CCCCCCC(=O)O)C(=O)O)cc1 (stereo unspecified)"
  pKi: 3.49

###

Target: Dihydrofolate reductase (Mus musculus, UniProt P00375)
Sequence (P00375 whole entry): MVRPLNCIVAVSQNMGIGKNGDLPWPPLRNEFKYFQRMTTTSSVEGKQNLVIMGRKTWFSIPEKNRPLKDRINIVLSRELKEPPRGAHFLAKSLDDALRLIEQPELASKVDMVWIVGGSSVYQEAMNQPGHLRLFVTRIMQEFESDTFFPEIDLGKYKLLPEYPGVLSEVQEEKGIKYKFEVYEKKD
A collection of molecules and their measured IC50
parameter: IC50 (nM)

- molecule: "CN(Cc1cnc2nc(N)nc(N)c2n1)c1ccc(C(=O)NC(CCCCCCCCCCC(=O)O)C(=O)O)cc1 (centres undefined)"
  targetDesc: "Dihydrofolate reductase (Mus musculus, UniProt P00375)"
  parameter: "IC50"
  recordedMeasurement: 26
- molecule: "Nc1nc(N)c2nc(CNc3ccc(C(=O)NC(CCCCCCC(=O)O)C(=O)O)cc3)cnc2n1 (centres undefined)"
  targetDesc: "Dihydrofolate reductase (Mus musculus, UniProt P00375)"
  parameter: "IC50"
  recordedMeasurement: 54
- molecule: "CN(Cc1cnc2nc(N)nc(N)c2n1)c1ccc(C(=O)NC(CCCCCCCC(=O)O)C(=O)O)cc1 (centres undefined)"
  targetDesc: "Dihydrofolate reductase (Mus musculus, UniProt P00375)"
  parameter: "IC50"
  recordedMeasurement: 32
- molecule: "CN(Cc1cnc2nc(N)nc(N)c2n1)c1ccc(C(=O)NC(CCCCCCC(=O)O)C(=O)O)cc1 (centres undefined)"
  targetDesc: "Dihydrofolate reductase (Mus musculus, UniProt P00375)"
  parameter: "IC50"
  recordedMeasurement: 23
